Every entry's value here was drawn from paper PMC12612973.

Below: a set of entries, each annotated with reported inhibition at 10 µM.
Biological target: human amylin (hIAPP) (Homo sapiens)
Construct: purchased Bachem USA
Sequence (P10997 34-70 limits assumed): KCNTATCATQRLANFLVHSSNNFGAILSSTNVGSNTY
Experiment: Thioflavin T (ThT) fluorescence assay of amylin aggregation
Format: biochemical
Conditions: read-out: ThT inhibition % (mean ± SEM), compound 10 μM, amylin 15 μM, 36 h incubation, 3 trials
Quantity measured: inhibition at 10 µM

> print(dat)
                                   molecule  test.result
1  OC(CCNCCC(c1ccccc1)c1ccccc1)CNCc1ccccc1 (stereo not shown)        12.6%
2  COc1ccc(CNCC(O)CN2CCN(c3ccccc3)CC2)cc1 (stereo not shown)           5%
3  COc1ccc(CNCC(O)CN2CCN(C(c3ccc(F)cc3)c3ccc(F)cc3)CC2)cc1 (stereo not shown)          17%
4  CCCC(C)N1CCN(CCC(O)CNCc2ccc(OC)cc2)CC1 (stereo not shown)        20.8%
